I'd appreciate it if you could supply Plant response rating, Wheat values for the items below.
System: wheat
PROTOCOL_TEXT: Test C postemergence herbicide test
Format: in vivo, Triticum aestivum
TEST_CONTEXT: postemergence, 125 g ai/ha; scale 0 to 100
Answers are plain numbers.

[[record]]
molecule = "CCc1nn(C(C)(C)C)nc1C(=O)Nc1cccc(C(=O)N(C)CC)c1 [Compound 384]"
tested_target = "wheat"
result_number = 20

[[record]]
molecule = "CCNC(=O)c1cccc(NC(=O)c2nn(C(C)(C)C)nc2C)c1 [Compound 392]"
tested_target = "wheat"
result_number = 30


Parameters: items (list). Returns: Plant response rating, Wheat for each item.
1. C=CCNC(=O)c1cccc(NC(=O)c2nn(C(C)(C)C)nc2CC)c1 [Compound 414]
2. CCNC(=O)c1ccc(F)c(NC(=O)c2c3c(nn2CC)C(C)(C)CC3)c1 [Compound 353]

Result block:
1: 10; 2: 15
